# STUDY TARGET: T1, EsCas13d, nuclease-dead (Eubacterium siraeum, UniProt B0MS50, R295A;H300A;R849A;H854A)
# T1 sequence: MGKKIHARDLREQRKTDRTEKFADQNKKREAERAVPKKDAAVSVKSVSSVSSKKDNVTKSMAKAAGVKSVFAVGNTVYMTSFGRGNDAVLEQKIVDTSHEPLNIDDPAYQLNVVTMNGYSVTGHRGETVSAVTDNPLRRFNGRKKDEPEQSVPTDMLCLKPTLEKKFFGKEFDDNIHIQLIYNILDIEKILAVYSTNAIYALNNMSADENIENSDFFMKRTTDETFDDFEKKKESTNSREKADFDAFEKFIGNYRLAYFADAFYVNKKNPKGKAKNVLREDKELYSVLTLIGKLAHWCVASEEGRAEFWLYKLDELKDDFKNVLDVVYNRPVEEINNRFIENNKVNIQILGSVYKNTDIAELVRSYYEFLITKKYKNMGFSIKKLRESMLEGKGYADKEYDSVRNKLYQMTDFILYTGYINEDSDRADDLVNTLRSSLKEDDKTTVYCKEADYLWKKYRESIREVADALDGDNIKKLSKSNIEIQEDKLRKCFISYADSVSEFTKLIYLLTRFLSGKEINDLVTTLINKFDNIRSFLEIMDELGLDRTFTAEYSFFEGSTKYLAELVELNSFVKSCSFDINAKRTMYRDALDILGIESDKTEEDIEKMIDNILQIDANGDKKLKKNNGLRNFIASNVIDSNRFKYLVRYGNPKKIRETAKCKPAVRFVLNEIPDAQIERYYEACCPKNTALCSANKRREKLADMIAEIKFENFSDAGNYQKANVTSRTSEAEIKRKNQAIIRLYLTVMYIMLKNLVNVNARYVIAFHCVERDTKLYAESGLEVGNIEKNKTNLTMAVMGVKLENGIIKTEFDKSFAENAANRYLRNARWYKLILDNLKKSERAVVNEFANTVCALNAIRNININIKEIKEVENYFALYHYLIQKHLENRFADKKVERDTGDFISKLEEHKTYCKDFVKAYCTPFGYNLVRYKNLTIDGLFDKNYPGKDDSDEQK
# ASSAY COMMENT: crRNA (strand 1, pre-loaded); Mg2+; 40 mM Tris-HCl pH 7.5, 150 mM NaCl, 6 mM MgCl2, 1 mM DTT, 0.1% Tween-20, 0.2 mg/ml BSA; 25 C; 10 min per concentration, then washed
# EXPERIMENTAL CONTEXT: tags: His6-TwinStrep-SUMO cleaved; N-terminal SNAP kept (SNAP-Surface 488); label: 3' end held by stalled T7 RNA polymerase
pKd: −log10 of the molar value.
pKd values, listed per item

BINDER	pKd
target 2 MT 5'PFS CGC 3'PFS AAC (mixed) RNA 1: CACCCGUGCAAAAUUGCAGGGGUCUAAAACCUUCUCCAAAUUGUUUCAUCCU RNA 2: GGGAAUGGAUCCACAUCUACGAAUUCCGCAGGAUGAAACAAUUUGGAGAAGAACAGAUCGGAAGAGCACACGU	8.31
target 2 MT 5'PFS CUC 3'PFS CAA (mixed) RNA 1: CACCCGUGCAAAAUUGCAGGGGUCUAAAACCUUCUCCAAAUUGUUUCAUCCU RNA 2: GGGAAUGGAUCCACAUCUACGAAUUCCUCAGGAUGAAACAAUUUGGAGAAGCAAAGAUCGGAAGAGCACACGU	8.76
target 3 insC 3' of 5,insG 3' of 1 (mixed) RNA 1: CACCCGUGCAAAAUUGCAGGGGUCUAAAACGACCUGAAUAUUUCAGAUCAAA RNA 2: GGGAAUGGAUCCACAUCUACGAAUUCGUUUUUGAUCUGAAAUAUUCACGGUCGUGCAGAUCGGAAGAGCACACGU	7.41
target 3 insG 3' of 6,insC 3' of 5 (mixed) RNA 1: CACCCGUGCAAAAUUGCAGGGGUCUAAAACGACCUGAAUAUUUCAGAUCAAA RNA 2: GGGAAUGGAUCCACAUCUACGAAUUCGUUUUUGAUCUGAAAUAUUCGACGGUCUGCAGAUCGGAAGAGCACACGU	7.94
